Cited source: patent US8389523B2

Record form. Attribute: Herbicidal effects index, Echinochloa oryzicola Vasing. Fill in for each entry.
test system: Echinochloa oryzicola Vasing; test: Herbicidal effects in paddy field soil treatment (Test Example 1); format: in vivo; parameters: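 grade 0 to 5 of growth suppression where 5 is 90% or more and 0 below 10%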; details: paddy field soil treatment; 1000 g of the active ingredient per hectare; wettable powder added dropwise on water surface; 21st day after treatment

Consider the reported Herbicidal effects index, Echinochloa oryzicola Vasing for these compounds:
> print(dat)
                                   compound  result
1  COc1ccc2nc(C(=O)C3=C(O)CCCC3=O)c(=O)n(-c3ccc(OC(F)F)cc3)c2c1       5
2  O=C1CCCC(O)=C1C(=O)c1nc2ccccc2n(-c2nccs2)c1=O       5
3  COc1ccc(-n2c(=O)c(C(=O)C3=C(O)CCCC3=O)nc3ccccc32)c(OC)c1OC       4
4  Cc1ccc(-n2c(=O)c(C(=O)C3=C(O)CCCC3=O)nc3ccccc32)cc1       5
5  Cn1c(=O)c(C(=O)C2=C(O)CCCC2=O)nc2cccnc21       5

For each of the items listed, what is its Herbicidal effects index, Echinochloa oryzicola Vasing?
1. CS(=O)(=O)c1cccc(-n2c(=O)c(C(=O)C3=C(O)CCCC3=O)nc3ccccc32)c1
2. CC(C)n1c(=O)c(C(=O)C2=C(O)CCCC2=O)nc2cccnc21
3. Cc1ccc(-n2c(=O)c(C(=O)C3=C(O)CCCC3=O)nc3cccnc32)cc1

Result block:
[4, 5, 5]

For each of the items listed, what is its Herbicidal effects index, Echinochloa oryzicola Vasing?
1. O=C1CCCC(O)=C1C(=O)c1nc2cccnc2n(-c2cccc(C(F)(F)F)c2)c1=O
2. COc1ccc(-n2c(=O)c(C(=O)C3=C(O)CCCC3=O)nc3ccccc32)cc1F
3. O=C(C1=C(O)C2CCC(C2)C1=O)c1nc2ccccc2n(-c2ccccc2)c1=O (stereo not drawn)
4. Cc1ccc(-n2c(=O)c(C(=O)C3=C(O)CCCC3=O)nc3ccccc32)c(Cl)c1

Result block:
5
4
5
5

For each of the items listed, what is its Herbicidal effects index, Echinochloa oryzicola Vasing?
1. CSCn1c(=O)c(C(=O)C2=C(O)CCCC2=O)nc2cccnc21
2. COc1ccc(-n2c(=O)c(C(=O)C3=C(O)CCCC3=O)nc3ccccc32)c(OC)c1
3. Cc1ccc(-n2c(=O)c(C(=O)C3=C(O)CCCC3=O)nc3ccccc32)cc1C
4. CC(C)(C)OC(=O)Cn1c(=O)c(C(=O)C2=C(O)CCCC2=O)nc2ccccc21

Result block:
4
4
5
5

For each of the items listed, what is its Herbicidal effects index, Echinochloa oryzicola Vasing?
1. O=C1CCCC(O)=C1C(=O)c1nc2cccnc2n(-c2ccc(C(F)(F)F)cc2)c1=O
2. COc1ccc(-n2c(=O)c(C(=O)C3=C(O)CCCC3=O)nc3cc(C)ccc32)cc1

Result block:
[5, 4]
